ASSAY_METHOD_TEXT: endothelial E-selectin expression blockers – imaging, HUVEC, immunofluorescence, MLSMR starter and 10KST1 sets, primary screen (AID 487);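 further: signal is fraction of cell area covered by stained E-selectin grains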
EXPERIMENTAL_CONTEXT: HUVEC TNFalpha-induced E-selectin immunofluorescence imaging, at 2 µM; stronger effect = higher value
TEST_READOUT: inhibition (%)
Numbers only, in %.

Answered cases to consult:
COMPOUND	inhibition (%)
CCc1ccccc1NC(=O)C(C#N)Cc1cccnc1 (stereo unspecified)	-21.3
COc1ccc2cc(C(c3nnnn3C(C)(C)C)N3CCc4ccccc4C3)c(=O)[nH]c2c1 (stereo unspecified)	1
CCN1CCN(Cc2ccc(NC(=O)Nc3ccccc3)cc2)CC1	-49.1
COc1ccc(/C=N/O)cc1COc1ccc(NC(C)=O)cc1	-30.3
CCOc1ccc(S(=O)(=O)Nc2ccc(Cl)cn2)c(C)c1C	-43.3

Return reported inhibition values for all items listed beneath this line.
1. O=C1CCC(c2ccccc2)N1C(=O)c1cccnc1 (stereo unspecified)
2. COc1ccc(OC)c(Nc2cc(-c3ccccc3)nc(N)n2)c1
3. O=C(NCCCn1ccnc1)c1csc2ccccc12
4. O=C(N1CCOCC1)N1CCC(NC(=O)C23CC4CC(CC(C4)C2)C3)CC1
5. O=C(O)CCCc1nc(-c2ccccc2)no1

[reply]
1: -57.8; 2: -25.1; 3: -7.7; 4: -15.5; 5: 22.1

Return reported inhibition values for all items listed beneath this line.
1. N#C/C(C(=O)c1ccccc1)=C1/CCCN1
2. COc1ccc(COC(=O)c2n[nH]c3ccccc23)cc1F
3. Cc1ccc(-c2nnc(SCC(=O)N3CC(C)CC(C)C3)o2)cc1C (stereo unspecified)
4. O=C(NCCCN1CCOCC1)c1cc(-c2ccc(Cl)cc2)on1
5. CC1=C(C(=O)OCCOC(C)C)C(c2cc3c(cc2Br)OCO3)C2=C(CCCC2=O)N1 (stereo unspecified)
6. CCCOc1cccc(NC(=O)c2c(-c3ccccc3)noc2C)c1

[reply]
[-66.4, -1.8, -32.7, -8.4, -37.4, -32]

Return reported inhibition values for all items listed beneath this line.
1. O=C(CSc1nc2ccccc2[nH]1)N1CCCCC1
2. COCCNC(=O)NC(=O)COC(=O)Cc1ccc2c(c1)OCCO2
3. COCCN(CC(=O)Nc1ccccc1C)S(=O)(=O)c1ccc(S(=O)(=O)N2CCCC2)cc1
4. CC(=O)c1ccc(NC(=O)c2cc(CC(C)C)on2)cc1
5. Fc1cccc(-c2cc3nc4c(c(N5CCN(c6cnccn6)CC5)n3n2)CCCC4)c1

[reply]
[13.2, -127, -18.2, -3, -80.1]

* * *

Provide the recorded fluorescence slope for the entries that follow.
EXPERIMENTAL_SYSTEM: Muscarinic acetylcholine receptor M4 (Homo sapiens) (UniProt P08173)
Sequence (P08173 whole entry, looked up): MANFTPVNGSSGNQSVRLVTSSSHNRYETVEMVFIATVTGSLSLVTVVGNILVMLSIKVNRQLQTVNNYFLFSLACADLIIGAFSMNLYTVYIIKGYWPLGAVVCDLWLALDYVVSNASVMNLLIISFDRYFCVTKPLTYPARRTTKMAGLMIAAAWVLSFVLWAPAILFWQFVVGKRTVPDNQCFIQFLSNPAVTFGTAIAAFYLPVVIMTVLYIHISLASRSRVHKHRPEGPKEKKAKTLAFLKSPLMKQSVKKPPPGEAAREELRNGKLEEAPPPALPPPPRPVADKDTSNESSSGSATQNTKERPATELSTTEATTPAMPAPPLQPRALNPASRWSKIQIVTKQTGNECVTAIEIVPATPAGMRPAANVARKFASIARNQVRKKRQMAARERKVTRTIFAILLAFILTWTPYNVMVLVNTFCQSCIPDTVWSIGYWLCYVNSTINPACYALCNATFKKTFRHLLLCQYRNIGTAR
ASSAY_METHOD_TEXT: M4-linked GIRK flux change, two-sided – cell-based, HEK293 M4/GIRK, thallium flux, BTC-AM, M4 allosteric agonist project, primary screen (AID 625);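 further: thallium influx through GIRK channels coupled to M4 in HEK293 cells with BTC-AM dye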
EXPERIMENTAL_CONTEXT: at 10 µM, actives lie on both sides
Give bare numbers.

COMPOUND	TEST_READOUT	RESULT_VALUE
CCOC(=O)CS(=O)(=O)c1nc(-c2ccccc2)cc(C(F)(F)F)n1	fluorescence slope	0.00498
COc1nc(OC)nc(N2CCC(NC(=O)C(Cc3ccc(C(C)C)cc3)NC(C)=O)CC2)n1 (centres undefined)	fluorescence slope	0.00515
Cc1nn(Cc2ccccc2)c(C)c1NC(=O)CCC(=O)O	fluorescence slope	0.00488

For the next question, use this compound.
[ask] Give the reported fluorescence slope for this compound. "O=C(c1ccc(S(=O)(=O)N2CCOCC2)cc1)N1CCc2ccccc2C1"
[reply] 0.00485
